tested on: Staphylococcus aureus A-5278; assay: In vitro antibacterial activity, agar dilution MIC; type: cell-based; conditions: code CC, BHI agar, 35-37° C., 20 to 24 hours, unit assumed
property_measured: Antibacterial Activity (MIC) (µg/mL)
Write the number in µg/mL without appending the unit.

Antibacterial Activity (MIC) measured on CCC1OC(=O)C(C)(CC=Cc2ccccc2)C(=O)C(C)C(OC2OC(C)CC(N(C)C)C2O)C(C)(OC)CC(C)C(=O)C(C)C2NC(=O)OC12C (stereo not shown) = 100

In plain terms, CCC1OC(=O)C(C)(O)C(=O)C(C)C(OC2OC(C)CC(N(C)C)C2O)C(C)(OC)CC(C)C(=O)C(C)C2N(CCCCc3ccccc3)C(=O)OC12C (stereo not shown) has a documented Antibacterial Activity (MIC) of 100
